- targetEntity: OsWOX13 (Oryza sativa, UniProt Q5QMM3 1-267)
- Sequence: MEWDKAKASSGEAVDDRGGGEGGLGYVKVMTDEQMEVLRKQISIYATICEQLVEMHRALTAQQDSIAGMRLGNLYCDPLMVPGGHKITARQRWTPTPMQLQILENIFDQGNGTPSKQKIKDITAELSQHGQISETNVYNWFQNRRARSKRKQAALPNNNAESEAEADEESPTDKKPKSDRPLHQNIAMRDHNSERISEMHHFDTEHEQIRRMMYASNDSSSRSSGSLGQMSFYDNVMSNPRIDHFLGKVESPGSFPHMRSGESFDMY
- protocol: protein-binding microarray (RPBM); PBS, 2% BSA, 51.3 ng/ul salmon testes DNA, 50 uM zinc acetate, 200 nM TF, 25 C, 1 h; high values mean tight binding
- statedConditions: protein: recombinant; tags: N-terminal polyhistidine and DsRed monomer fusion (pET32a); label: CyDye5-dUTP incorporated in the synthesized complementary strand; 3' TTTTT single-stranded linker to array surface; dsDNA, one strand shown
Over roughly 35,000 sequences, “fluorescence intensity (a.u.)” has its median near 10,000; the highest 2% begin near 52,000. Only a selection was taken, and the highest values are over-represented in it overall.
Kindly supply the reported binding signal values for the records listed here.

Study these solved cases before continuing.
AATTGATGATGAAATAATGAATGATATTTGACAAGGAGCTCGGAGTCACCTAGTGCAG    17300 fluorescence intensity (a.u.)
ACCAATCACAACCATTCTTCTTCACTTACTTTCTCTTTTCCGGAGTCACCTAGTGCAG    6630 fluorescence intensity (a.u.)
TCCACAATTTGCTAATCATATTTCTGTTGATAATGATAATCGGAGTCACCTAGTGCAG    7820 fluorescence intensity (a.u.)
ATTTGATCCAAATTATATGGTTATTAATCAAATCCCATAGCGGAGTCACCTAGTGCAG    10200 fluorescence intensity (a.u.)

Could you tell me binding signal for each of these sequences? They are listed below.
1. CCTTCGATTATTGGCACGGATTGTTTATCCAGGTAAGACTCGGAGTCACCTAGTGCAG
2. AGGTGTACATGATTGTTTGCTTCCTTGCTGCAGCTCGGCGCGGAGTCACCTAGTGCAG
3. GTGAAAATGATTGGTCTTTTGATTAACATATGCAGCTTATCGGAGTCACCTAGTGCAG
4. GTAGACTGATCACAATCTTTATTAGAATCGTTTAAGACACCGGAGTCACCTAGTGCAG
5. TCAGCTTATTGACTTATATGATTTATAAGCCAATGGATTTCGGAGTCACCTAGTGCAG
6. TAAGTAATTATTTATTCTTTTCATATCATTTGATTCATTGCGGAGTCACCTAGTGCAG
7. GCTTGACTAACATATTCTGTTGGATTGCTACCGCGCCATGCGGAGTCACCTAGTGCAG
8. ATTATGTAAATTTTGACTAATGTTTAGTCGAAGTGCAAGTCGGAGTCACCTAGTGCAG

A)
1: 13300 fluorescence intensity (a.u.); 2: 14100 fluorescence intensity (a.u.); 3: 53300 fluorescence intensity (a.u.); 4: 6090 fluorescence intensity (a.u.); 5: 11100 fluorescence intensity (a.u.); 6: 15400 fluorescence intensity (a.u.); 7: 7150 fluorescence intensity (a.u.); 8: 8100 fluorescence intensity (a.u.)
